Ref: patent US9758472B2

- target_system: LuxR (Aliivibrio fischeri)
- Sequence (P35327 whole entry): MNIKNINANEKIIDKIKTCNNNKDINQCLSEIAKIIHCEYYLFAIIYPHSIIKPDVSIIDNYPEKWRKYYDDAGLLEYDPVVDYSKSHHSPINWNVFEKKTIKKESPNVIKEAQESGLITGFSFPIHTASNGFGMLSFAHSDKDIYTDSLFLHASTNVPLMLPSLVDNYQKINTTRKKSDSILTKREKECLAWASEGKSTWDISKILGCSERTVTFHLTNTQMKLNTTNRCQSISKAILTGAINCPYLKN
- assay_protocol: cell-based
- assay_setup: dose response; V. fischeri ESI 114 (Δ-LuxI)
Known IC50 of a selection of compounds
Just the number in nM, nothing appended.

[[record]]
compound = "O=C(Cc1ccc(-c2ccccc2)cc1)N[C@H]1CCSC1=O [Compound 23E]"
scale_unit = "nM"
numeric_readout = 350

[[record]]
compound = "CCCCCC(=O)N[C@H]1CCSC1=O [Compound 28E]"
scale_unit = "nM"
numeric_readout = 840

[[record]]
compound = "CCCCCCCCCC(=O)CC(=O)N[C@H]1CCSC1=O [Compound 1E]"
scale_unit = "nM"
numeric_readout = 450

[[record]]
compound = "CCCCCCCC(=O)N[C@H]1CCSC1=O [Compound 26E]"
scale_unit = "nM"
numeric_readout = 130

[[record]]
compound = "O=C(Cc1ccc(Br)cc1)N[C@H]1CCSC1=O [Compound 18E]"
scale_unit = "nM"
numeric_readout = 770


Please give the measured IC50 for this compound: CCCCCC(=O)CC(=O)N[C@H]1CCSC1=O [Compound 24E]
350

Please give the measured IC50 for this compound: CCCCCCC(=O)N[C@H]1CCSC1=O [Compound 27E]
310
